# system under test: T1, BCMA on cells (293T cells transfected with BCMA; H929, MM.1S and U266 cell lines expressing BCMA) (human, UniProt Q02223 1-184)
# T1 construct: H929, MM.1S and U266 carry the native protein; also called B-cell Maturation Antigen; TNFRSF17
# T1 sequence: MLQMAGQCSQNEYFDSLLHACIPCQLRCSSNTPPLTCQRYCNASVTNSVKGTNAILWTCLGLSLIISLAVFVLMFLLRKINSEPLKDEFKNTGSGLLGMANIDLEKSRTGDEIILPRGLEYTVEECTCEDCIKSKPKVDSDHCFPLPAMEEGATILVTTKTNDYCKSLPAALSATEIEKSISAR
# assay: flow cytometry, H929 cells; also: test concentration or dose not given here

binder | Mean fluorescent intensity
SCT-Aa02(h/h) (antibody, V domains shown, Full IgG format, chimeric: human IgG1 heavy chain constant region, human kappa light chain constant region) VH: EVKLLQSGGGLVQPGGSLKLSCAASGIDFSRYWMSWVRRAPGKGLEWIGEINPDSSTINSAPSLEDKFIISRDNAKNTLYLQMSKVRSEDTALYYCASLYYDYERDYAMDYWGQGASVTVSS VL: DIVMTQSQKFMSTSVGDRVSVTCKASQNVGTNVAWYQQKPGQSPKALIYSASYRFSGVPDRFTGSGSGTDFTLTISNVQSEDLAEYFCQQYHSYPFTFGGGTKLEIK | 1280
SCT-Aa02(m/m) (antibody, V domains shown, Full IgG format: mouse IgG1 heavy chain constant region, mouse kappa light chain constant region) VH: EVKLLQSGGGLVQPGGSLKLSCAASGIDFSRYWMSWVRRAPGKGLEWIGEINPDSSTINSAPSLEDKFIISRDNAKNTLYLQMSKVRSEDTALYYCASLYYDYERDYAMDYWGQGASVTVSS VL: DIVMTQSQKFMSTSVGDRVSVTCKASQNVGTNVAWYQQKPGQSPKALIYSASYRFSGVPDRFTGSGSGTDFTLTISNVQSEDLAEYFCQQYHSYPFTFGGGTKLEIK | 4560
